TARGET UNDER TEST: NDM-1 (Klebsiella pneumoniae, UniProt C7C422)
Sequence (C7C422 31-270 limits assumed): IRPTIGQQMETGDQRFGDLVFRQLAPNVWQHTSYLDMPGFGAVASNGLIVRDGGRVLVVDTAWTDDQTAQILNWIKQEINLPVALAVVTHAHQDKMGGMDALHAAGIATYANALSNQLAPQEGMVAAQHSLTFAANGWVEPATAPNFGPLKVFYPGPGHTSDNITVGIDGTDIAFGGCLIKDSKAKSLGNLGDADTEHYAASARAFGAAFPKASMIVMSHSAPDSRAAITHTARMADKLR
ASSAY REMARKS: biochemical
CONDITION LABEL: IC50(light), recombinant NDM-1, nitrocefin, light 450 nm, 20 J cm^-2
OBSERVATION TYPE: IC50 (µM)
Numbers only, in µM.

In: GET IC50 where system = NDM-1 (Klebsiella pneumoniae, UniProt C7C422) and item = Cl.Cl.Nc1cccc(-c2cc(C(=O)O)nc(C(=O)O)c2)c1 [N1, 4-(3-amino-phenyl) dipicolinic acid]
Out: 3.1

* * *

TARGET UNDER TEST: UniProt:C7C422
ASSAY REMARKS: biochemical
CONDITION LABEL: IC50(dark), recombinant NDM-1, nitrocefin, dark
OBSERVATION TYPE: IC50 (µM)
One number for each entry, in µM.

In: Read the entry Cl.Cl.Nc1cccc(-c2cc(C(=O)O)nc(C(=O)O)c2)c1 [N1, 4-(3-amino-phenyl) dipicolinic acid] and write its reported IC50.
Out: 3.2

* * *

TARGET UNDER TEST: NDM-1 (Klebsiella pneumoniae, UniProt C7C422)
OBSERVATION TYPE: Kd (µM)
Give bare numbers, in µM.

In: Read the entry Cl.Cl.Nc1cccc(-c2cc(C(=O)O)nc(C(=O)O)c2)c1 [N1, 4-(3-amino-phenyl) dipicolinic acid] and write its reported Kd.
Out: 35
